- Tested on: Amaranthus retoflexus (AMARE)
- test-description: Pre-emergence Test (glasshouse, percentage damage to the plant)
- Type: in vivo
- condition-details: 1000 g/ha unless otherwise stated, five-point scale
reported-property: percentage damage to the plant, AMARE

For this compound ( "CCn1c(C)c(-c2ccsc2)c(=O)c(C(=O)O)c1-c1ccc(Cl)c(Cl)c1" ), measured percentage damage to the plant, AMARE is 1 (1=0-20%)

For this compound ( "CCn1c(C)c(-c2cnn(C)c2)c(=O)c(C(=O)O)c1-c1ccc(Cl)c(Cl)c1" ), measured percentage damage to the plant, AMARE is 1 (1=0-20%)

For this compound ( "CCc1ccc(-c2c(C)n(CC)c(-c3ccc(Cl)c(Cl)c3)c(C(=O)O)c2=O)cc1" ), measured percentage damage to the plant, AMARE is 1 (1=0-20%)

For this compound ( "CCn1c(C)c(-c2cccc(SC)c2)c(=O)c(C(=O)O)c1-c1ccc(Cl)c(Cl)c1" ), measured percentage damage to the plant, AMARE is 1 (1=0-20%)

For this compound ( "CCn1c(C)c(-c2cccc(OCC(F)(F)F)c2)c(=O)c(C(=O)O)c1-c1ccc(Cl)c(Cl)c1" ), measured percentage damage to the plant, AMARE is 1 (1=0-20%)

For this compound ( "CCn1c(C)c(-c2cc(Cl)cc(Cl)c2)c(=O)c(C(=O)O)c1-c1ccc(Cl)c(Cl)c1" ), measured percentage damage to the plant, AMARE is 1 (1=0-20%)

For this compound ( "CCn1c(C)c(-c2cccc(Cl)c2)c(=O)c(C(=O)O)c1-c1ccc(Cl)c(Cl)n1" ), measured percentage damage to the plant, AMARE is 0

For this compound ( "CCn1c(C)c(-c2ccc(C#N)cc2)c(=O)c(C(=O)O)c1-c1ccnc(Cl)c1" ), measured percentage damage to the plant, AMARE is 0

###

- Test system: Echinochloa crus-galli (ECHCG)
- test-description: Post-emergence Test (glasshouse, percentage damage to the plant)
- Format: in vivo
- condition-details: post-emergence; 1000 g/ha unless otherwise stated; evaluated after 13 days
reported-property: ECHCG, percentage damage caused to the plant (five-point scale)

For this compound ( "CCn1c(C)c(-c2cc(C(F)(F)F)ccc2F)c(=O)c(C(=O)O)c1-c1ccc(Cl)c(Cl)c1" ), measured ECHCG, percentage damage caused to the plant (five-point scale) is 2 (2=21-40%)

For this compound ( "CCn1c(C)c(-c2ccc3ccccc3n2)c(=O)c(C(=O)O)c1-c1ccc(Cl)c(Cl)c1" ), measured ECHCG, percentage damage caused to the plant (five-point scale) is 1 (1=0-20%)

For this compound ( "CCn1c(C)c(-c2ccc(Cl)cc2F)c(=O)c(C(=O)OC)c1-c1cnc(Cl)c(Cl)c1" ), measured ECHCG, percentage damage caused to the plant (five-point scale) is 4 (4=61-80%)

For this compound ( "CCn1c(C)c(-c2ccc(Cl)cc2Cl)c(=O)c(C(=O)O)c1-c1cnc(Cl)c(Cl)c1" ), measured ECHCG, percentage damage caused to the plant (five-point scale) is 5 (5=81-100%)

For this compound ( "CCn1c(C)c(-c2ccc(Cl)cc2)c(=O)c(C(=O)OC)c1-c1cnc(Cl)c(Cl)c1" ), measured ECHCG, percentage damage caused to the plant (five-point scale) is 3 (3=41-60%)

For this compound ( "CCn1c(C)c(-c2cc(OCCOC)c(Cl)cc2F)c(=O)c(C(=O)O)c1-c1ccc(Cl)c(Cl)c1" ), measured ECHCG, percentage damage caused to the plant (five-point scale) is 5 (5=81-100%)

For this compound ( "CCn1c(C)c(-c2ccc(F)cc2F)c(=O)c(C(=O)O)c1-c1cnc(Cl)c(Cl)c1" ), measured ECHCG, percentage damage caused to the plant (five-point scale) is 4 (4=61-80%)

For this compound ( "CCn1c(C)c(-c2ccc(C#N)cc2)c(=O)c(C(=O)O)c1-c1ccc(Cl)cc1" ), measured ECHCG, percentage damage caused to the plant (five-point scale) is 1 (1=0-20%)

###

Field: percentage damage to the plant, AMARE. Provide a value for each of the compounds that follow.
- Tested on: Amaranthus retoflexus (AMARE)
- test-description: Pre-emergence Test (glasshouse, percentage damage to the plant)
- Format: in vivo
- condition-details: 1000 g/ha unless otherwise stated, five-point scale

Hey, Amaranthus retoflexus (AMARE) data for CCn1c(C)c(-c2ccc(C(F)(F)F)cc2)c(=O)c(C(=O)O)c1-c1ccc(Cl)c(Cl)c1 [Compound 26] : percentage damage to the plant, AMARE came out at 1 (1=0-20%)

Hey, Amaranthus retoflexus (AMARE) data for CCn1c(C)c(-c2ccc(Cl)cc2)c(=O)c(C(=O)O)c1-c1ccc(F)c(F)c1 [Compound 128] : percentage damage to the plant, AMARE came out at 4 (4=61-80%)

Hey, Amaranthus retoflexus (AMARE) data for CCOc1cc(-c2c(C)n(CC)c(-c3ccc(Cl)c(Cl)c3)c(C(=O)O)c2=O)cc(C(F)(F)F)c1 [Compound 88] : percentage damage to the plant, AMARE came out at 1 (1=0-20%)

Hey, Amaranthus retoflexus (AMARE) data for CCn1c(C)c(-c2ccc(Cl)s2)c(=O)c(C(=O)O)c1-c1ccc(Cl)cc1 [Compound 166] : percentage damage to the plant, AMARE came out at 1 (1=0-20%)

###

Field: Post-emergence Test SETFA, percentage damage to the plant (five-point scale). Provide a value for each of the compounds that follow.
- System: Setaria faberi (SETFA)
- test-description: Post-emergence Test (glasshouse, percentage damage to the plant)
- Assay type: in vivo
- condition-details: post-emergence spray, 1000 g/ha unless otherwise stated, evaluated after 13 days

For this compound ( "CCn1c(C)c(-c2ccc(Cl)c(C#N)c2)c(=O)c(C(=O)O)c1-c1ccc(Cl)c(Cl)c1" ), measured Post-emergence Test SETFA, percentage damage to the plant (five-point scale) is 4 (4=61-80%)

For this compound ( "CCn1c(C)c(-c2ccc([N+](=O)[O-])cc2)c(=O)c(C(=O)O)c1-c1ccc(Cl)cc1" ), measured Post-emergence Test SETFA, percentage damage to the plant (five-point scale) is 2 (2=21-40%)

For this compound ( "CCn1c(C)c(-c2cc(Cl)c(F)c(Cl)c2)c(=O)c(C(=O)O)c1-c1ccc(Cl)cc1" ), measured Post-emergence Test SETFA, percentage damage to the plant (five-point scale) is 0

For this compound ( "CCn1c(C)c(-c2cc(F)cc(OCC(F)(F)F)c2)c(=O)c(C(=O)O)c1-c1ccc(Cl)c(Cl)c1" ), measured Post-emergence Test SETFA, percentage damage to the plant (five-point scale) is 1 (1=0-20%)

For this compound ( "CCn1c(C)c(-c2csc(Cl)c2)c(=O)c(C(=O)O)c1-c1ccc(Cl)c(Cl)c1" ), measured Post-emergence Test SETFA, percentage damage to the plant (five-point scale) is 1 (1=0-20%)

For this compound ( CCn1c(C)c(-c2ccc(F)cc2OC)c(=O)c(C(=O)OC)c1-c1ccc(Cl)c(Cl)c1 [Compound 164] ), measured Post-emergence Test SETFA, percentage damage to the plant (five-point scale) is 1 (1=0-20%)

For this compound ( "CCn1c(C)c(-c2cccc(OC)n2)c(=O)c(C(=O)O)c1-c1ccc(Cl)c(Cl)c1" ), measured Post-emergence Test SETFA, percentage damage to the plant (five-point scale) is 4 (4=61-80%)

For this compound ( "CCn1c(C)c(-c2cccc(C(F)(F)F)c2)c(=O)c(C(=O)O)c1-c1ccnc(Cl)c1" ), measured Post-emergence Test SETFA, percentage damage to the plant (five-point scale) is 3 (3=41-60%)

For this compound ( "CCn1c(C)c(C2=CCCC2)c(=O)c(C(=O)O)c1-c1ccc(Cl)c(Cl)c1" ), measured Post-emergence Test SETFA, percentage damage to the plant (five-point scale) is 3 (3=41-60%)

For this compound ( "CCn1c(C)c(-c2cc(Cl)nc(OC(C)C)c2)c(=O)c(C(=O)O)c1-c1ccc(Cl)c(Cl)c1" ), measured Post-emergence Test SETFA, percentage damage to the plant (five-point scale) is 3 (3=41-60%)

For this compound ( "CCn1c(C)c(-c2ccc(F)cc2OC)c(=O)c(C(=O)O)c1-c1ccc(Cl)cc1" ), measured Post-emergence Test SETFA, percentage damage to the plant (five-point scale) is 3 (3=41-60%)

For this compound ( "CCn1c(C)c(-c2ccc(F)c(C#N)c2)c(=O)c(C(=O)O)c1-c1ccc(Cl)cc1" ), measured Post-emergence Test SETFA, percentage damage to the plant (five-point scale) is 3 (3=41-60%)

For this compound ( "CCn1c(C)c(-c2cccs2)c(=O)c(C(=O)O)c1-c1ccc(Cl)c(Cl)c1" ), measured Post-emergence Test SETFA, percentage damage to the plant (five-point scale) is 3 (3=41-60%)

For this compound ( "CCn1c(C)c(-c2ccc(Cl)cc2SC)c(=O)c(C(=O)O)c1-c1ccc(Cl)c(Cl)c1" ), measured Post-emergence Test SETFA, percentage damage to the plant (five-point scale) is 1 (1=0-20%)

For this compound ( "CCn1c(C)c(-c2ccc(F)cc2F)c(=O)c(C(=O)O)c1-c1ccc(Cl)c(Cl)c1" ), measured Post-emergence Test SETFA, percentage damage to the plant (five-point scale) is 5 (5=81-100%)

For this compound ( "CCn1c(C)c(-c2ccc(Cl)c(C(=O)NC3CC3)c2)c(=O)c(C(=O)O)c1-c1ccc(Cl)c(Cl)c1" ), measured Post-emergence Test SETFA, percentage damage to the plant (five-point scale) is 2 (2=21-40%)
